TARGET_OF_ASSAY: MMP-13 (Homo sapiens, UniProt P45452)
Construct: purchased Calbiochem (EMD/MERCK Biosciences)
TEST_DESCRIPTION: Enzyme inhibiting activity of MMPs, fluorogenic peptide substrate
Type: biochemical
COND: compounds not described in the Tables; read-out: inhibiting activity for MMP-13
pIC50: −log10 of the molar value.
PARAMETER: pIC50

Data request: I have this molecule here, CO/N=C(\C)c1cccc2ccc(C#Cc3ccc(N4CCN(S(=O)(=O)N[C@H](C)C(=O)O)CC4)cc3)cc12 , and I need its recorded pIC50.
Data returned: 7.00 to 8.00

Data request: I have this molecule here, CC(C)[C@@H](NS(=O)(=O)N1CCN(c2ccc(C#Cc3ccc4cccc(C(N)=O)c4c3)cc2)CC1)C(=O)O , and I need its recorded pIC50.
Data returned: 7.00 to 8.00

Data request: I have this molecule here, CC(C)NS(=O)(=O)c1cccc2ccc(C#Cc3ccc(N4CCN(S(=O)(=O)N[C@H](C)C(=O)O)CC4)cc3)cc12 , and I need its recorded pIC50.
Data returned: 7.00 to 8.00

Data request: I have this molecule here, C[C@@H](NS(=O)(=O)N1CCN(c2ccc(C#Cc3cccc(C(=O)NCc4ccc(Cl)cc4)c3)cc2)CC1)C(=O)O , and I need its recorded pIC50.
Data returned: > 8.00

Data request: I have this molecule here, CCC[C@H](NS(=O)(=O)N1CCN(c2ccc(C#Cc3ccc4cccc(C(C)=O)c4c3)cc2)CC1)C(=O)O , and I need its recorded pIC50.
Data returned: 7.00 to 8.00

Data request: I have this molecule here, C[C@@H](NS(=O)(=O)N1CCN(c2ccc(C#Cc3ccc4cccc(-c5ncco5)c4c3)cc2)CC1)C(=O)O , and I need its recorded pIC50.
Data returned: 7.00 to 8.00

Data request: I have this molecule here, CC(C)CO/N=C1\CCc2ccc(C#Cc3ccc(N4CCN(S(=O)(=O)N[C@H](C)C(=O)O)CC4)cc3)cc21 , and I need its recorded pIC50.
Data returned: 7.00 to 8.00

Data request: I have this molecule here, CCC[C@H](NS(=O)(=O)N1CCN(c2ccc(/C=C/c3ccc4cccc(C(N)=O)c4c3)cc2)CC1)C(=O)O , and I need its recorded pIC50.
Data returned: 7.00 to 8.00

Data request: I have this molecule here, C[C@@H](NS(=O)(=O)N1CCN(c2ccc(C#Cc3ccc4cccc(-c5ccc[nH]5)c4c3)cc2)CC1)C(=O)O , and I need its recorded pIC50.
Data returned: 7.00 to 8.00

Data request: I have this molecule here, C[C@H](NS(=O)(=O)N1CCN(c2ccc(C#Cc3ccc4cccc(C(N)=O)c4c3)cc2)CC1)C(=O)O , and I need its recorded pIC50.
Data returned: 7.00 to 8.00

Data request: I have this molecule here, C[C@@H](NS(=O)(=O)N1CCN(c2ccc(C#Cc3ccc4cccc(/C=C/C#N)c4c3)cc2)CC1)C(=O)O , and I need its recorded pIC50.
Data returned: > 8.00

Data request: I have this molecule here, CC(=O)c1cccc2ccc(C#Cc3ccc(N4CCN(S(=O)(=O)N[C@@H](C(=O)O)C(C)C)CC4)cc3)cc12 , and I need its recorded pIC50.
Data returned: 7.00 to 8.00

Data request: I have this molecule here, C[C@@H](NS(=O)(=O)N1CCN(c2ccc(C#Cc3ccc4cccc(S(C)(=O)=O)c4c3)cc2)CC1)C(=O)O , and I need its recorded pIC50.
Data returned: 7.00 to 8.00

Data request: I have this molecule here, CC(C)[C@H](NS(=O)(=O)N1CCN(c2ccc(C#Cc3ccc4cccc(C(N)=O)c4c3)cc2)CC1)C(=O)O , and I need its recorded pIC50.
Data returned: 7.00 to 8.00

Data request: I have this molecule here, CCC[C@H](NS(=O)(=O)N1CCN(c2ccc(C#Cc3cccc(-c4ncc(C)o4)c3)cc2)CC1)C(=O)O , and I need its recorded pIC50.
Data returned: 7.00 to 8.00

Data request: I have this molecule here, C[C@@H](NS(=O)(=O)N1CCN(c2ccc(C#Cc3ccc4cccc(S(N)(=O)=O)c4c3)cc2)CC1)C(=O)O , and I need its recorded pIC50.
Data returned: 7.00 to 8.00

Data request: I have this molecule here, CCC[C@H](NS(=O)(=O)N1CCN(c2ccc(C#Cc3ccc4cccc(C(N)=O)c4c3)cc2)CC1)C(=O)O , and I need its recorded pIC50.
Data returned: 7.00 to 8.00

Data request: I have this molecule here, CCNC(=O)c1cccc2ccc(C#Cc3ccc(N4CCN(S(=O)(=O)N[C@H](C)C(=O)O)CC4)cc3)cc12 , and I need its recorded pIC50.
Data returned: > 8.00

Data request: I have this molecule here, C[C@@H](NS(=O)(=O)N1CCN(c2ccc(C#Cc3ccc4cccc(C(=O)NCc5ccccc5)c4c3)cc2)CC1)C(=O)O , and I need its recorded pIC50.
Data returned: > 8.00

Data request: I have this molecule here, COc1cccc2ccc(C#Cc3ccc(N4CCN(S(=O)(=O)N[C@H](C)C(=O)O)CC4)cc3)cc12 , and I need its recorded pIC50.
Data returned: 7.00 to 8.00

Data request: I have this molecule here, CSc1cccc2ccc(C#Cc3ccc(N4CCN(S(=O)(=O)N[C@H](C)C(=O)O)CC4)cc3)cc12 , and I need its recorded pIC50.
Data returned: 7.00 to 8.00

Data request: I have this molecule here, CC(C)C[C@@H](NS(=O)(=O)N1CCN(c2ccc(C#Cc3ccc4cccc(C(N)=O)c4c3)cc2)CC1)C(=O)O , and I need its recorded pIC50.
Data returned: 7.00 to 8.00

Data request: I have this molecule here, C[C@@H](NS(=O)(=O)N1CCN(c2ccc(C#Cc3ccc4cccc(C(=O)NC5CC5)c4c3)cc2)CC1)C(=O)O , and I need its recorded pIC50.
Data returned: > 8.00

Data request: I have this molecule here, Cc1cnc(-c2cccc3ccc(C#Cc4ccc(N5CCN(S(=O)(=O)N[C@H](C)C(=O)O)CC5)cc4)cc23)o1 , and I need its recorded pIC50.
Data returned: 7.00 to 8.00

Data request: I have this molecule here, C[C@@H](NS(=O)(=O)N1CCN(c2ccc(C#Cc3ccc4cccc(/C=C/Cl)c4c3)cc2)CC1)C(=O)O , and I need its recorded pIC50.
Data returned: 7.00 to 8.00

Data request: I have this molecule here, C[C@@H](NS(=O)(=O)N1CCN(c2ccc(C#Cc3ccc4cccc(/C=C/c5nnn[nH]5)c4c3)cc2)CC1)C(=O)O , and I need its recorded pIC50.
Data returned: > 8.00

Data request: I have this molecule here, C[C@@H](NS(=O)(=O)N1CCN(c2ccc(C#Cc3ccc4cccc(C(=O)NCCNC(=O)OC(C)(C)C)c4c3)cc2)CC1)C(=O)O , and I need its recorded pIC50.
Data returned: 7.00 to 8.00
